Reported inhibition is given for each of the following molecules.
system: Hexose transporter 1 (Plasmodium falciparum)
testSummary: ST_JUDE_LEISH: Cytotoxicity at 2uM final concentration against transgenic Leishmania Mexicana promastigotes LmPfHT that are glucose transport deficient and complemented with the Plasmodium falciparum hexose transporter. Activity is measured by DNA content using SYBR green in vitro
Type: functional
Please answer in the form of a number followed by its unit of measurement.

CCn1c(C)c(C)c2cc(C(=O)Nc3ccon3)ccc21
1.02%
Cc1cccc2nc(-c3ccc(-c4ccc(NC(=O)C5CCN(C)CC5)cc4)cc3)[nH]c12
5.28%
N=C(N)Nc1nc(-c2cc(NC(=O)C(F)(F)F)cc([N+](=O)[O-])c2)cs1
0.51%
CC(C)CCNc1nc(NCc2ccccc2)c2cc(O)ccc2n1
5.74%
CCCCCCCCc1c(C)nc(C)c(Br)c1O
-0.72%

Switching to the query record.
Q: Please report the recorded inhibition for CC(=O)c1ccccc1OCCSc1nnc(Cc2cccs2)n1C1CCCCC1 .
Ans: 2.09%

###

The following compounds are listed with their measured inhibition values.
system: Solute carrier family 2, facilitated glucose transporter member 1 (Homo sapiens) (UniProt P11166)
Sequence (P11166 whole entry): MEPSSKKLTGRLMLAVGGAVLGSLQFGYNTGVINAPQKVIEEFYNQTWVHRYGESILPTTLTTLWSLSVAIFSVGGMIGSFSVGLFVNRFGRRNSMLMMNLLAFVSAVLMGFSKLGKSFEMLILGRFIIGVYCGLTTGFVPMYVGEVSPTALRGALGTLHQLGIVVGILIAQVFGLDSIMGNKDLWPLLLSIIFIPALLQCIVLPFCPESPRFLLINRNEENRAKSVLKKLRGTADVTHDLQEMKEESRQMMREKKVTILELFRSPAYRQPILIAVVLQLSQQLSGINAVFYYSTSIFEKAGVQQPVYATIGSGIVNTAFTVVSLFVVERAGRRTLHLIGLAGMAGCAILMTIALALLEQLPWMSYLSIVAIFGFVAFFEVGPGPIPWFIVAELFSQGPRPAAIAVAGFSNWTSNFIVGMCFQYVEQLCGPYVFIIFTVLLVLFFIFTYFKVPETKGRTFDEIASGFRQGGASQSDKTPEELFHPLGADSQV
testSummary: ST_JUDE_LEISH: Cytotoxicity at 2uM final concentration against transgenic Leishmania Mexicana promastigotes LmGLUT1 that are glucose transport deficient and complemented with the human glucose transporter GLUT1. Activity is measured by DNA content using SYBR green in vitro
Type: functional
Quick note: give the figure in %, leave out the unit.

Solved entries (count: 2):
Cc1noc(C)c1-c1cccc(CNCc2ccc(-c3ccc(-c4nc5ccccc5[nH]4)s3)cc2)c1
1.82
CCOc1c(CNCCCCCCNCc2ccc3ccccc3c2OCC)ccc2ccccc12
3.4

Q: Could you share which inhibition value was measured for COc1c(C2CCN(CCCCNC(=O)c3cccc(-c4ccc(C(F)(F)F)cc4)c3)CC2)ccc2c1CCCC2 ?
Ans: 2.51

Q: Next: O=C(Nc1ccc(-c2nc3ccccc3[nH]2)cc1)c1ccc(N2CCCC2)c([N+](=O)[O-])c1
Ans: 0.71

Q: Another: CCCCCCCCCN(CCC)C(=O)[C@@H]1OC(C(=O)OC(c2ccccc2)c2ccccc2)=C[C@H](NC(=O)OC(C)(C)C)[C@H]1NC(C)=O
Ans: 2.98

Q: Try N#Cc1ccc(N2CCN(Cc3cccc(-c4ccc(-c5nc6cc(C(F)(F)F)ccc6[nH]5)s4)c3)CC2)nc1 next.
Ans: 0.46

Q: Do the same for O=C(/C=C/c1ccc(Cl)c(Cl)c1)NCCCCCN1CCC(NC(=O)NC2CCCCC2)CC1 please
Ans: 1.02

Q: # iterate: CCNc1cc(C(=O)N[C@@H](Cc2ccccc2)[C@H](O)CNCCCc2ccc(OC)cc2)cc(N2CCCC2=O)c1
Ans: 0.4

Q: Request: COc1ccc(C=NNc2nc3ccccc3[nH]2)cc1O
Ans: -3.31

Q: Another: CCNc1cc(C(=O)N[C@@H](Cc2ccccc2)[C@H](O)CNCc2cccc(OC)c2C)cc(N2CCCCS2(=O)=O)c1
Ans: 1.82

Q: Again, but for CN1CCN(S(=O)(=O)c2ccc3nccc(Nc4ccc(Oc5ccccc5)cc4)c3c2)CC1
Ans: -3.11

###

Recorded inhibition for the following compounds
system: Glucose transporter (Leishmania mexicana)
testSummary: ST_JUDE_LEISH: Cytotoxicity at 2uM final concentration against transgenic Leishmania Mexicana promastigotes LmGT2 that are glucose transport deficient and complemented with the L. Mexicana glucose transporter 2. Activity is measured by DNA content using SYBR green in vitro
Format: functional
Please give a number only; it is taken to be in %.

As a guide, the following entries are already answered.
O=C(Nc1ccc2c(c1)CCN2C1CCN(Cc2cccc(C(F)(F)F)c2)C1)c1ccco1 (stereo not given)
-0.47
C=Cc1c(C2CCN(CCCCNC(=O)c3ccc(-c4ccc(C#N)cc4)cc3)CC2)ccc2c1CCCC2
1.54
CCCCCCOc1ccc2ccccc2c1CNCCCCCCNCc1c(OCCCCCC)ccc2ccccc12
7.86
NC1CCN(Cc2cccc(-c3cccc(-c4nc5ccccc5[nH]4)c3)c2)C1 (stereo not given)
1.15
Cc1noc(C)c1-c1ccc2c(Nc3cccc4c3-c3ccccc3C4=O)c(C(=O)NCc3ccccc3I)cnc2c1
6.11
CC(=O)CC(=O)N1CCN(c2ccccc2)CC1
-0.35

Q: For Cc1cc(N(C)C)nc(Nc2ccc(NC(=O)c3ccc(Br)o3)cc2)n1 , what is its reported inhibition?
Ans: 3.96

Q: What about this compound? N#Cc1cccc(CN2CCCN(Cc3cccc(C(=O)Nc4ccc(Cl)cc4)c3)CC2)c1
Ans: 0.64

Q: Record: c1ccc(Oc2ccc(Nc3nncc4ccccc34)cc2)cc1
Ans: -4.56

Q: Then what about the compound O=C(Nc1ccccc1)c1c[nH]cn1 ?
Ans: -0.23

Q: Do the same for CCC(CO)NCC(O)Cn1c2ccc(Br)cc2c2cc(Br)ccc21 (stereo not given) please
Ans: -1.57

Q: Also Cc1ccccc1N1CCN(c2ccc(C(=O)NC(C)C)cn2)CC1 ?
Ans: -1.79

Q: # repeat for CCN(CC)/C(=N/C(=N)Nc1ccc(Cl)cc1)NCCCCCCCCN/C(=N\C(=N)Nc1ccc(Cl)cc1)N(CC)CC
Ans: -0.07

Q: Next: Fc1ccc(NC(S)=NN=Cc2ccccn2)cc1
Ans: -1.91

Q: Can you handle O=C(CCc1c[nH]cn1)Nc1cccc(-c2ccc(-c3nc4ccccc4[nH]3)s2)c1 next?
Ans: 1.88

Q: Moving on to NC1CCN(c2nc(NCCc3ccc(O)cc3)nc(NCc3ccccc3-c3ccccc3)n2)CC1
Ans: 0.38

Q: // query: CN(C)CCCNCc1ccc(-c2ccc(CNCCOc3ccccc3)cc2)cc1
Ans: 2.46

Q: Would you mind doing Nc1c2c(nc3ccc(Oc4ccc(Cl)cc4)cc13)CCCC2 as well?
Ans: 40.5

Q: For CC(C)(C)c1cc(Cn2ccnc2)cc(C(C)(C)C)c1O then?
Ans: 4.9

Q: Queued: CC(=O)Nc1nc(C(=O)Nc2cccc(-c3cccc(-c4nc5cccc(C)c5[nH]4)c3)c2)cs1
Ans: 14.6

Q: For Cc1cc(C(=O)Nc2ccc3c(ccn3C3CCCN(Cc4ccc(C(F)(F)F)cc4F)CC3)c2)no1 (stereo not given) then?
Ans: -0.5

Q: Now try CN1CCCN(Cc2ccc(-c3cccc(NC(=O)c4ccc(Cl)cc4)c3)cc2)CC1 .
Ans: 0.76

Q: Let us now turn to CCC(CC)OC(=O)C(C)c1cccc(C(=O)c2ccccc2)c1 (stereo not given)
Ans: 1.64

Q: Another compound to check: Nc1ncc(-c2ccc(Cl)c(Cl)c2)c(N)n1
Ans: 0.31

Q: Next: C=CCNC(CCCCC)c1ccc(OCCOc2ccc(C(CCCCC)NCC=C)cc2)cc1 (stereo not given)
Ans: 3.03

Q: Input Cn1cncc1-c1ccc2c(-c3ccsc3)cnc(N)c2c1
Ans: 6.81

Q: Again, but for Oc1cc2c(cc1CN1CCN(Cc3ccc(Cl)s3)CC1)CCC2
Ans: 1.82

Q: What would you report for COCCN1CCC(N(Cc2ccc(-c3ccc(C(F)(F)F)cc3)cc2)C(=O)Cn2c(CCc3cccc(F)c3F)cc(=O)c3c2CCC3)CC1 ?
Ans: -2.32

###

system: Glucose transporter (Leishmania mexicana) (UniProt O61059)
testSummary: ST_JUDE_LEISH: Cytotoxicity at 2uM final concentration against transgenic Leishmania Mexicana promastigotes LmGT2 that are glucose transport deficient and complemented with the L. Mexicana glucose transporter 2. Activity is measured by DNA content using SYBR green in vitro
Format: functional
quantityMeasured: inhibition (%)
# output: bare number, implied unit %

Here's what some known entries look like.
C#CCCOc1ccc2ccccc2c1CNCCCCCCNCc1c(OCCC#C)ccc2ccccc12
-0.13
OC(CNc1ccnc(Nc2ccc(Cl)cc2)n1)c1ccccc1C(F)(F)F (stereo not given)
5.08
CCCNC(=O)C1Cc2c([nH]c3ccc(Br)cc23)C2(CCN(CCc3ccccc3)CC2)N1 (stereo not given)
1.33
Cc1cccc(CN2CCC(CNC(=O)c3cc4c(-c5ccccc5F)nn(C)c4s3)CC2)c1
2.82
CCN(CC)CCCNc1ncc2c(-c3ccc(NC(=O)Nc4cc(C(F)(F)F)ccc4F)cc3)nn(C)c2n1
4.62

Q: For the molecule shown here, CN1CCN(S(=O)(=O)c2ccc3nccc(Nc4ccc(Oc5ccccc5)cc4)c3c2)CC1 , give the reported inhibition.
Ans: -1.4

Q: Cool, now NCCCNc1nc(Nc2ccc(C(F)(F)F)cc2F)c2c(=O)[nH]ccc2n1
Ans: 0.74

Q: Another: CCOC(=O)c1nc(-c2cc(Cl)nc(Cl)c2)[nH]c1NC(=S)NCCCN1CCOCC1
Ans: 0.84

###

system: Hexose transporter 1 (Plasmodium falciparum) (UniProt O97467)
testSummary: ST_JUDE_LEISH: Cytotoxicity at 2uM final concentration against transgenic Leishmania Mexicana promastigotes LmPfHT that are glucose transport deficient and complemented with the Plasmodium falciparum hexose transporter. Activity is measured by DNA content using SYBR green in vitro
Format: functional
inhibition values, listed per item
Report the value in % with no unit label.

CC(C)N1CCN(C(CN2CCN(CCCOc3ccc4ccccc4c3)CC2)c2ccc(F)cc2)CC1 (stereo not given)
1.79

Q: Looking for the measured inhibition of CCNCCCC(C)Nc1ccnc2cc(Cl)ccc12 (stereo not given) , can you help?
Ans: -2.68

Q: // repeat for CCC1CCc2cc(N)cc(-c3nc4c(c(C)nn4CC)c(=O)[nH]3)c2O1 (stereo not given) and report
Ans: 4.15

Q: // same read-out, input: CCC[C@@H]([C@@H](CC(C)C)C(=O)N[C@@H](CCCCNC(=O)c1cccc(OC)c1)C(=O)Nc1nccs1)N(O)C=O
Ans: 10.2

Q: Also, CCOc1cc(C)c(C2CCN(CCCCNC(=O)c3ccc(NC(=O)c4ccc(Cl)cc4)cc3)CC2)cc1C please.
Ans: -0.72
